The reported measurements were obtained from paper PMC12040169.

Items are presented alongside their recorded viability at 28.5 h, 10 µM.
Experiment: in vitro
Settings: human, hela cells, % viability
Hi! Could you send only the number? It should be in %, unit omitted.

Known results for molecules:
| molecule | viability at 28.5 h, 10 µM (%) |
| --- | --- |
| CCc1c(C)nc2c(C(=O)NCCOC)cnn2c1C | 93.9 |
| O=C(C1CCCO1)N1CCCCCC1c1cc(-c2cccs2)on1 (stereo not shown) | 97.6 |
| CCN(CC)C(=O)CSc1nnc[nH]1 | 93.3 |
| CSCCC(=O)NCc1ccc(-c2csnn2)cc1 | 83.2 |
| O=C(Nc1ccccc1C(=O)O)c1ccccc1O | 89 |
| Cc1ccsc1CCNC(=O)C1(Oc2cccnc2C)CCNCC1 | 84.2 |

So, "O=C(c1ccsc1NS(=O)(=O)c1ccc2ccccc2c1)N1CCOCC1" ? Its viability at 28.5 h, 10 µM was 93.7

So, CS(=O)(=O)NC1CCN(C2CCc3c(Cl)cccc32)CC1 (stereo not shown) ? Its viability at 28.5 h, 10 µM was 93.7

So, "CCc1noc(C)c1C(=O)NCc1cccnc1N(C)C1CCCCC1" ? Its viability at 28.5 h, 10 µM was 98.9

So, "Nn1cnn2c(SCCSC3CCCCC3)nnc12" ? Its viability at 28.5 h, 10 µM was 108

So, CNc1nc(C2CCN(C(=O)c3ccc(N4CCC(C)CC4)cc3)C2)nc2c1CCN(C)C2 (stereo not shown) ? Its viability at 28.5 h, 10 µM was 106

So, "O=c1[nH]c2cc(Cl)cc(Cl)c2o1" ? Its viability at 28.5 h, 10 µM was 90.6

So, "Cc1c(S(=O)(=O)NCc2ccc(C(F)(F)F)c(F)c2)cnn1-c1ccccc1" ? Its viability at 28.5 h, 10 µM was 108

So, "O=C(NC1CCCCC1)O[C@@H]1CO[C@H]2[C@@H]1OC[C@@H]2NS(=O)(=O)Cc1ccccc1" ? Its viability at 28.5 h, 10 µM was 87.8

So, CC1CC1C(=O)N1CCCC(c2cc3cccnc3[nH]2)C1 (stereo not shown) ? Its viability at 28.5 h, 10 µM was 80.3

So, CCN(CC)C(=O)CN1CCN(c2nccnc2Oc2ccc(OC)c(OC)c2)CC1 [CBK083051T] ? Its viability at 28.5 h, 10 µM was 103

So, "Cc1ccc(N(CC(=O)N/N=C/C(C)C)S(=O)(=O)c2ccccc2)c(C)c1" ? Its viability at 28.5 h, 10 µM was 92.5

So, CC[n+]1c(C(C)(C)C)csc1NCC1CC1 [CBK011154B] ? Its viability at 28.5 h, 10 µM was 106

So, "COc1ccc(Br)cc1S(=O)(=O)NCCCN1CCOCC1" ? Its viability at 28.5 h, 10 µM was 103

---

Assay: in vitro
Conditions: human, hela cells, % viability
Items are presented alongside their recorded viability at 28.5 h, 10 µM.
Hi! Could you send only the number? It should be in %, unit omitted.

Known results for compounds:
| compound | recordedValue |
| --- | --- |
| CC(C)C(=O)N1CCC(c2nc3ccc(F)cc3cc2N)CC1 [CBK284656] | 81.5 |
| Cc1cc(CN(C)Cc2ccc(-n3ccnc3C)cc2)n[nH]1 [CBK281989] | 97.6 |
| CCOC(=O)C(C)N1C(=O)S/C(=C/c2cc(C)n(-c3ccncc3)c2C)C1=O (stereo not drawn) [CBK265145] | 99.9 |
| COc1ccccc1C(=O)N1CCC(Cc2ccc(-c3ccccc3)cc2)(C(N)=O)CC1 [CBK285774] | 100 |
| O=C(CSc1nnc(-c2ccccc2)n1-c1ccccc1)N/N=C/c1cccc2cccnc12 [CBK262863] | 91 |
| Cc1occc1SCC(=O)Nc1ccc(CN2CCOCC2)cc1 [CBK306453] | 89.9 |
| CC(C)(C)c1cc(C(=O)NCCN)n(Cc2ccc(Cl)cc2Cl)n1 [CBK116631T] | 95.1 |
| O=C(NCCn1cc[nH]c1=O)c1cnc(-c2ccc(Cl)cc2)c(-c2ccc(O)cc2)c1 [CBK036766] | 92 |
| CC(NC(=O)CN1CCCCCC1=O)c1cc2cc(Cl)ccc2o1 (stereo not drawn) [CBK281448] | 87.7 |
| CN1CCN(Cc2c(O)ccc3cc(-c4ccc(F)cc4)c(=O)oc23)CC1 [CBK267976] | 111 |

So, CC(C)(C)NC(=O)N1CCC(=O)N1 [CBK007341] ? Its viability at 28.5 h, 10 µM was 95.9

So, O=C(CN1CCN(c2cc(-c3ccsc3)ncn2)CC1)N1CCCC1 [CBK091074] ? Its viability at 28.5 h, 10 µM was 99.9

So, COc1ccc(C(=O)N2CCC3(CCN(Cc4ccc(Cl)c(Cl)c4)C3)C2)cc1OC (stereo not drawn) [CBK132150] ? Its viability at 28.5 h, 10 µM was 97.3

So, O=C(O)CCC(=O)Nc1ccc(-c2ccc([N+](=O)[O-])cc2)cc1 [CBK261637] ? Its viability at 28.5 h, 10 µM was 105

So, Nc1ncc(-c2ccc3c(c2)OCO3)nc1Nc1ccc2[nH]ccc2c1 [CBK063667] ? Its viability at 28.5 h, 10 µM was 94.6

So, N#CC1(NC(=O)c2ccn(-c3cccc(F)c3)n2)CCSC1 (stereo not drawn) [CBK304566] ? Its viability at 28.5 h, 10 µM was 106

So, Cc1nn(CCNC(=O)C2CC(=O)N(CC(C)C)C2)c(C)c1C (stereo not drawn) [CBK281630] ? Its viability at 28.5 h, 10 µM was 88

So, O=C(CN1C(=O)c2ccc([N+](=O)[O-])cc2C1=O)Nc1cccc2c1C(=O)N(c1ccccc1)C2=O [CBK265576] ? Its viability at 28.5 h, 10 µM was 84.7
